test: in vitro toxicity in MDCK cells; format: cell-based, Canine; conditions: dog, 0.05 μg/ml
reported_property: cytotoxicity at 72 h (%)
Kindly provide the numeric value in % only, without the unit symbol.

# input Look at this compound and give its reported cytotoxicity at 72 h. COc1cc2c(OC)c3c(c(-c4ccc5c(c4)OCO5)c2cc1OC)C(=O)OC3OC (single isomer, unassigned)
# output 15

----------
experiment: in vitro; details: human, diploid fibroblast cells
reported_property: selectivity ratio

# input Look at this molecule and give its reported selectivity ratio. COc1cc2c(OC)c3c(c(-c4ccc5c(c4)OCO5)c2cc1OC)C(=O)OC3OC (single isomer, unassigned)
# output 10 to 60
